All figures here come from ChEMBL document CHEMBL1147762.

Assay: Basolateral Caco-2 cell membrane permeability
Format: ADME, cell-based
Settings: human
value_type: Papp (×10⁻⁶ cm/s)

[a] CN1C(=O)C(C(=O)Nc2nncs2)c2cc3occc3cc21 (configuration not stated)
[b] CCCCCC[C@H]([C@H](C)O)n1cnc2c(N)ncnc21 [(+)-EHNA]
Short answer wanted: higher Papp, a or b ? # reply format: chosen label
a

----------
Test system: P-glycoprotein (human)
Assay: Basolateral cell permeability in MDCK with MDR transfectant overexpressing human p-glycoprotein
Type: ADME, cell-based
Conditions: MDCK-MDR1
value_type: Papp (×10⁻⁶ cm/s)
Provide only the numeric value, understood in ×10⁻⁶ cm/s.

What value of Papp has been reported for the following compound? CN1C(=O)C(C(=O)Nc2nncs2)c2cc3occc3cc21 (stereo unspecified)
4.6
